Data provenance: PubChem BioAssay (NCI)

Measured TGI of individual entries
# Test system: M14 melanoma
# assay-procedure: NCI tumour cell line growth inhibition, 48 h

## Input Please tell me: TGI of `O=C1CCc2c(sc3ncnc(Nc4cccc(Br)c4)c23)C1` , system M14 melanoma?
## Output 13.9 µM

## Input Please tell me: TGI of `Cn1cc(C2=C(c3cccc(Cl)c3)C(=O)NC2=O)c2ccccc21` , system M14 melanoma?
## Output 23 µM

Further cases:
## Input Please tell me: TGI of `c1ccc2c(c1)[C@@H]1O[C@@H]1[C@@]13O[C@@]21[C@H]1O[C@H]1c1ccccc13` , system M14 melanoma?
## Output 33.6 µM

## Input Please tell me: TGI of `O=c1cc(-c2ccccc2)[nH]c2c(F)ccc(F)c12` , system M14 melanoma?
## Output > 100 µM

## Input Please tell me: TGI of `CCN1CCN(c2nc(NNC(=O)c3cccc(OC)c3)nc(N3CCN(C(c4ccccc4)c4ccccc4)CC3)n2)CC1` , system M14 melanoma?
## Output 3.31 µM

## Input Please tell me: TGI of `O=C(CSCC(=O)N/N=C\c1cccc(Br)c1)N/N=C\c1cccc(Br)c1` , system M14 melanoma?
## Output 49.9 µM

## Input Please tell me: TGI of `Cc1ccc(S(=O)(=O)N/N=C/CN2C(=O)c3ccccc3C2=O)cc1` , system M14 melanoma?
## Output > 100 µM

## Input Please tell me: TGI of C=C(C)[C@@H]1CC[C@@H]2C(=CC[C@]3(C)C([C@H](C)CC/C=C(/C)C(=O)O)CC[C@@]23C)[C@@]1(C)CCC(=O)O (some centres undefined) , system M14 melanoma?
## Output > 100 µM

## Input Please tell me: TGI of N#CC(N)(C(=O)C(=O)NCCCNC(=O)C(=O)C(N)(C#N)c1ccc(Cl)cc1)c1ccc(Cl)cc1 (centres undefined) , system M14 melanoma?
## Output > 100 µM
